system: biotinyl-Phe-oxazolone; experiment: self-aminoacylation, catalytic enhancement (BFO) (fold over background); higher = more active; k-Seq, kA / k0A0; sequences stand for … in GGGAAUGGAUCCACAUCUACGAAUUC…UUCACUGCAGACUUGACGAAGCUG
Fewer inactive variants are shown than the library holds.
Would you mind labelling by self-aminoacylation? At or over 5 is fulfilled, under is not fulfilled.

Query string: Is the recorded value of self-aminoacylation equal to or greater than 5 for this sequence? AAUCACUUAGGUCAUCGGGUG [Fam2.2 aminoacylation ribozyme variant]
Result string: fulfilled

Query string: Is the recorded value of self-aminoacylation equal to or greater than 5 for this sequence? ACUACCCUGAUCAUCGAGUGA [Fam2.1 aminoacylation ribozyme variant]
Result string: fulfilled

Query string: Is the recorded value of self-aminoacylation equal to or greater than 5 for this sequence? CGACUUCACACAAUCGGUCUG [Fam1A.1 aminoacylation ribozyme variant]
Result string: not fulfilled

Query string: Is the recorded value of self-aminoacylation equal to or greater than 5 for this sequence? CAACACUUCAAGCAAUCGCUC [Fam1B.1 aminoacylation ribozyme variant]
Result string: not fulfilled

Query string: Is the recorded value of self-aminoacylation equal to or greater than 5 for this sequence? CCACACUUUAAGUAAUCGGUC [Fam1B.1 aminoacylation ribozyme variant]
Result string: not fulfilled

Query string: Is the recorded value of self-aminoacylation equal to or greater than 5 for this sequence? CUCCUUCAAACGAUCGGUCUG [Fam1A.1 aminoacylation ribozyme variant]
Result string: not fulfilled

Query string: Is the recorded value of self-aminoacylation equal to or greater than 5 for this sequence? AUUAUCCUAGUCAUCGAGUGA [Fam2.1 aminoacylation ribozyme variant]
Result string: fulfilled

Query string: Is the recorded value of self-aminoacylation equal to or greater than 5 for this sequence? AAGUAUGCUAAUAUUCGCAAG [Fam3.1 aminoacylation ribozyme variant]
Result string: not fulfilled

Query string: Is the recorded value of self-aminoacylation equal to or greater than 5 for this sequence? CUAAACUUCAAGCAAUCGGUC [Fam1B.1 aminoacylation ribozyme variant]
Result string: fulfilled

Query string: Is the recorded value of self-aminoacylation equal to or greater than 5 for this sequence? CAUCACUUCAAGCAAUCGGUC [Fam1B.1 aminoacylation ribozyme variant]
Result string: fulfilled

Query string: Is the recorded value of self-aminoacylation equal to or greater than 5 for this sequence? AUUACCCUGGUUAUCUAGUGA [Fam2.1 aminoacylation ribozyme variant]
Result string: fulfilled

Query string: Is the recorded value of self-aminoacylation equal to or greater than 5 for this sequence? UCACACUUCAAGCAAUCGUUC [Fam1B.1 aminoacylation ribozyme variant]
Result string: not fulfilled

Query string: Is the recorded value of self-aminoacylation equal to or greater than 5 for this sequence? GUUCACCUAGGUCAUCGGCUG [Fam2.2 aminoacylation ribozyme variant]
Result string: fulfilled

Query string: Is the recorded value of self-aminoacylation equal to or greater than 5 for this sequence? CUACAGUUCAAGCAAUCGGUC [Fam1B.1 aminoacylation ribozyme variant]
Result string: not fulfilled

Query string: Is the recorded value of self-aminoacylation equal to or greater than 5 for this sequence? CAGUUUGCUAAUAGUCGCAUG [Fam3.1 aminoacylation ribozyme variant]
Result string: not fulfilled

Query string: Is the recorded value of self-aminoacylation equal to or greater than 5 for this sequence? CUACUGCAAACAAGCGGUCUG [Fam1A.1 aminoacylation ribozyme variant]
Result string: fulfilled

Query string: Is the recorded value of self-aminoacylation equal to or greater than 5 for this sequence? CGACUUCAAGCAAUCGGUCUG [Fam1A.1 aminoacylation ribozyme variant]
Result string: fulfilled

Query string: Is the recorded value of self-aminoacylation equal to or greater than 5 for this sequence? CCACACUUGACGCAAUCGGUC [Fam1B.1 aminoacylation ribozyme variant]
Result string: not fulfilled
